All figures here come from ChEMBL document CHEMBL1156877.

assay: Solubility in fasted state simulated intestinal fluid; format: physicochemical
testReadout: solubility (µg/mL)
Numbers only, in µg/mL.

Please give the measured solubility for this compound: C[C@@H](Oc1ccc2ncc(C3CC3C(N)=O)cc2c1)c1c(Cl)ccc(F)c1Cl (some centres not stated)
345

---

test system: Calu-6; assay: Cytotoxicity against human Calu6 cells after 96 hrs by WST8 assay; settings: Calu-6, 96 h
pIC50: −log10 of the molar value.
testReadout: pIC50

Please give the measured pIC50 for this molecule: C[C@@H](Oc1ccc2ncc(C3CC3C(N)=O)cc2c1)c1c(Cl)ccc(F)c1Cl (stereo partly specified)
< 6.00

---

For each record, write down the corresponding IC50.
assay: Inhibition of recombinant PDGFR by TR-FRET assay

Worked examples, 2 compounds total:
[
  {
    "compound": "C[C@@H](Oc1ccc2ncccc2c1)c1c(Cl)ccc(F)c1Cl",
    "testReadout": "IC50",
    "recordedMeasurement": "> 50 µM"
  },
  {
    "compound": "C[C@@H](Oc1ccc2ncc(/C=C/C(N)=O)cc2c1)c1c(Cl)ccc(F)c1Cl",
    "testReadout": "IC50",
    "recordedMeasurement": "> 50 µM"
  }
]

Please give the measured IC50 for this compound: C[C@@H](Oc1ccc2ncc(C3CC3C(N)=O)cc2c1)c1c(Cl)ccc(F)c1Cl (stereo partly drawn)
> 50 µM

---

tested on: MCF7; experiment: Cytotoxicity against human MCF7 cells after 96 hrs by WST8 assay; settings: MCF7, 96 h
testReadout: IC50

Please give the measured IC50 for this molecule: C[C@@H](Oc1ccc2ncc(C3CC3C(N)=O)cc2c1)c1c(Cl)ccc(F)c1Cl (stereo partly specified)
> 1000 nM

---

molecular target: Tyrosine-protein kinase receptor UFO (Homo sapiens, UniProt P30530); test: Inhibition of recombinant AXL by TR-FRET assay
Sequence (P30530 whole entry): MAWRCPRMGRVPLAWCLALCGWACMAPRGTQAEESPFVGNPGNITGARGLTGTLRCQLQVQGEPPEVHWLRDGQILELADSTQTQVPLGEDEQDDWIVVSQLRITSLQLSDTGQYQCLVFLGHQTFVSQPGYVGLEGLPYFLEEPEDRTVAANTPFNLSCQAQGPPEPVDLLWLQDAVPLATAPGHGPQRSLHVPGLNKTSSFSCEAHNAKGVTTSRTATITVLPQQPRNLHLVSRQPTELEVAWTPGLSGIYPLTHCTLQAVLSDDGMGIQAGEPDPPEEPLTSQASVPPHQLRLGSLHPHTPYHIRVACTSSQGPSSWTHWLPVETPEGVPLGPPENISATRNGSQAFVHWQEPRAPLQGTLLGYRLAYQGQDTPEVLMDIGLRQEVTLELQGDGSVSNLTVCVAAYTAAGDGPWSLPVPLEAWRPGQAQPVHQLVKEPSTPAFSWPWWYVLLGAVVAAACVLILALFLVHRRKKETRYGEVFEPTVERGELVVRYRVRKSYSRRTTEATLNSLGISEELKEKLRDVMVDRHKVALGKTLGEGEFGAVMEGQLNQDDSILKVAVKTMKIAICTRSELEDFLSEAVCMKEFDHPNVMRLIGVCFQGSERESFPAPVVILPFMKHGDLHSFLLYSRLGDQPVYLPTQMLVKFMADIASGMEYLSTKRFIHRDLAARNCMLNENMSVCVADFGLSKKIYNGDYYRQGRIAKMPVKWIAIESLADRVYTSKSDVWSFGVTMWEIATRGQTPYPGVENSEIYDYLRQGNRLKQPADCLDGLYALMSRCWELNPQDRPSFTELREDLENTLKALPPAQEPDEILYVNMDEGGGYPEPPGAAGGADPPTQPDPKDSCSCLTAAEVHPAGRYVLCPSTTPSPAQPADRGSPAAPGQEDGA
testReadout: IC50

Please state, for each entry, its recorded IC50.
1. C[C@@H](Oc1ccc2ncc(/C=C/C(N)=O)cc2c1)c1c(Cl)ccc(F)c1Cl
2. C[C@@H](Oc1ccc2ncc(C3CC3C(N)=O)cc2c1)c1c(Cl)ccc(F)c1Cl (stereo partly drawn)
3. C[C@@H](Oc1ccc2ncccc2c1)c1c(Cl)ccc(F)c1Cl

1. 570 nM
2. 430 nM
3. 14000 nM

---

target: RAC-alpha serine/threonine-protein kinase (Homo sapiens); assay: Inhibition of recombinant AKT1 by IMAP assay
Sequence (P31749 whole entry): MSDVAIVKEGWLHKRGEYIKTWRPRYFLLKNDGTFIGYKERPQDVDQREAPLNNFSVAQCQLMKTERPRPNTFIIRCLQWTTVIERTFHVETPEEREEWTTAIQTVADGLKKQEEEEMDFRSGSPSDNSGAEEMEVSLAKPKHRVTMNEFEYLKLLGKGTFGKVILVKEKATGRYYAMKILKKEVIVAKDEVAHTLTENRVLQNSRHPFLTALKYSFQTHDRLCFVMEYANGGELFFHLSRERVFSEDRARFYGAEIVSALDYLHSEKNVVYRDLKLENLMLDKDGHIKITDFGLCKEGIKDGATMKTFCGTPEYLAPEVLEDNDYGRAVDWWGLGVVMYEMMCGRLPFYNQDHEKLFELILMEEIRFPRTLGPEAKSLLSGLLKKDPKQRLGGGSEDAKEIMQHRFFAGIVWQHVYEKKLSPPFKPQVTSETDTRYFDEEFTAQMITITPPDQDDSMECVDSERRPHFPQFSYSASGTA
pIC50: −log10 of the molar value.
testReadout: pIC50

Worked examples, 2 compounds total:
[
  {
    "compound": "C[C@@H](Oc1ccc2ncc(/C=C/C(N)=O)cc2c1)c1c(Cl)ccc(F)c1Cl",
    "recordedMeasurement": "< 4.30"
  },
  {
    "compound": "C[C@@H](Oc1ccc2ncccc2c1)c1c(Cl)ccc(F)c1Cl",
    "recordedMeasurement": "< 4.30"
  }
]

Form field: pIC50 recorded for C[C@@H](Oc1ccc2ncc(C3CC3C(N)=O)cc2c1)c1c(Cl)ccc(F)c1Cl (stereo partly drawn) with RAC-alpha serine/threonine-protein kinase (Homo sapiens) (enter value)
< 4.30

---

For each record, write down the corresponding IC50.
target: Proto-oncogene tyrosine-protein kinase Src (Homo sapiens, UniProt P12931); assay: Inhibition of recombinant Src by TR-FRET assay

[
  {
    "molecule": "C[C@@H](Oc1ccc2ncccc2c1)c1c(Cl)ccc(F)c1Cl",
    "IC50": "22 µM"
  },
  {
    "molecule": "CC(Oc1ccc2ncc(/C=C/C(=O)O)cc2c1)c1c(Cl)ccc(F)c1Cl (racemic)",
    "IC50": "> 50 µM"
  },
  {
    "molecule": "CC(Oc1ccc2ncccc2c1)c1c(Cl)ccc(F)c1Cl (racemic)",
    "IC50": "> 50 µM"
  },
  {
    "molecule": "C[C@H](Oc1ccc2ncccc2c1)c1c(Cl)ccc(F)c1Cl",
    "IC50": "20 µM"
  },
  {
    "molecule": "CC(Oc1ccc2ncc(CCC(N)=O)cc2c1)c1c(Cl)ccc(F)c1Cl (racemic)",
    "IC50": "> 50 µM"
  }
]

Please state, for each entry, its recorded IC50.
1. CC(Oc1ccc2ncc(/C=C/C(N)=O)cc2c1)c1c(Cl)ccc(F)c1Cl (racemic)
2. CC(Oc1ccc2ncc(/C=C/C(=O)N(C)C)cc2c1)c1c(Cl)ccc(F)c1Cl (racemic)
3. CNC(=O)/C=C/c1cnc2ccc(OC(C)c3c(Cl)ccc(F)c3Cl)cc2c1 (racemic)
4. CC(Oc1ccc2ncc(/C=C/CN)cc2c1)c1c(Cl)ccc(F)c1Cl (racemic)

> 50 µM
> 50 µM
> 50 µM
46 µM

---

biological target: Tyrosine-protein kinase ABL1 (Homo sapiens); assay: Inhibition of recombinant Abl by TR-FRET assay
pIC50: −log10 of the molar value.
testReadout: pIC50

[
  {
    "molecule": "C[C@@H](Oc1ccc2ncccc2c1)c1c(Cl)ccc(F)c1Cl",
    "assayedTarget": "Tyrosine-protein kinase ABL1 (Homo sapiens)",
    "recordedMeasurement": "< 4.30"
  }
]

Please state, for each entry, its recorded pIC50.
1. C[C@@H](Oc1ccc2ncc(C3CC3C(N)=O)cc2c1)c1c(Cl)ccc(F)c1Cl (stereo partly drawn)
2. C[C@@H](Oc1ccc2ncc(/C=C/C(N)=O)cc2c1)c1c(Cl)ccc(F)c1Cl

1. < 4.30
2. 5.00

---

biological target: Hepatocyte growth factor receptor (Homo sapiens, UniProt P08581); experiment: Inhibition of recombinant c-Met by TR-FRET assay
Sequence (P08581 whole entry): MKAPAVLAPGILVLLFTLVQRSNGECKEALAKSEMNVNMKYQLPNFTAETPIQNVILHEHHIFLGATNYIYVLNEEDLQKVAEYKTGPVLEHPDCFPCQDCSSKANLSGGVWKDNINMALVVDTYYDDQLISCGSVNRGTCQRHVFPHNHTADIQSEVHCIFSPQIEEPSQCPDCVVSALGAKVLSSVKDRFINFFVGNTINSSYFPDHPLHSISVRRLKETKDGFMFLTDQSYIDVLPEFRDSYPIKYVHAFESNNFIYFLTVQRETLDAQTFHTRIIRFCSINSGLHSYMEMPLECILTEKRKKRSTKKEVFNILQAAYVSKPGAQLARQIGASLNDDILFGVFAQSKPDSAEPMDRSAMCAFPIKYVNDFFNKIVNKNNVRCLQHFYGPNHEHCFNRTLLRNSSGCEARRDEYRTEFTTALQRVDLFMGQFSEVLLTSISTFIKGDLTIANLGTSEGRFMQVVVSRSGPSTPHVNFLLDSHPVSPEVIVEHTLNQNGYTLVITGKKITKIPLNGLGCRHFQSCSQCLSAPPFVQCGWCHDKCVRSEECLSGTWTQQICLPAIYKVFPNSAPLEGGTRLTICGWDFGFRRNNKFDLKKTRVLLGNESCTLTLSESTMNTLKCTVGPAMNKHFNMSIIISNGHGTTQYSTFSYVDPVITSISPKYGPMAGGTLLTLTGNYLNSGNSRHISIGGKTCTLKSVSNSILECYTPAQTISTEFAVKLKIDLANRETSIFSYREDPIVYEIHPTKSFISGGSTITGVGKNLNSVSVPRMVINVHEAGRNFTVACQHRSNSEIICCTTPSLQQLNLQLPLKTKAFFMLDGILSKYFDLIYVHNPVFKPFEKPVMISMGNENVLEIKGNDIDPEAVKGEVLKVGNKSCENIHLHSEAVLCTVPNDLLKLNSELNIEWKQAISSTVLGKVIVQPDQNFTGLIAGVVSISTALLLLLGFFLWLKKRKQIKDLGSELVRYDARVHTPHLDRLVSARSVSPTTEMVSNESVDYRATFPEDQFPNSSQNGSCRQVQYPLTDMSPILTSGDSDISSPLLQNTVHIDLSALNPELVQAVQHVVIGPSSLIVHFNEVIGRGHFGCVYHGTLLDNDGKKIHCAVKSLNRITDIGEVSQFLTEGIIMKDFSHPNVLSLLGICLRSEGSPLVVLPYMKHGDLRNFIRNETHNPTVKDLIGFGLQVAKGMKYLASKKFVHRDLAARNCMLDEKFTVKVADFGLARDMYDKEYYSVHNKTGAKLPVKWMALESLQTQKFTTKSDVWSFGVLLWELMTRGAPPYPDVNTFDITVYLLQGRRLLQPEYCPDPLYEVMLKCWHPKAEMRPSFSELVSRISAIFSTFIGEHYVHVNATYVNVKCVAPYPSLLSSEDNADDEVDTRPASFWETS
pIC50: −log10 of the molar value.
Answer FALSE if pIC50 is under 7, and TRUE if it is 7 or more.

Dear colleague, could you confirm whether CC(Oc1ccc2ncc(CCC(N)=O)cc2c1)c1c(Cl)ccc(F)c1Cl (racemic) has pIC50 at or above 7?
FALSE

Dear colleague, could you confirm whether CC(Oc1ccc2ncc(/C=C/CN)cc2c1)c1c(Cl)ccc(F)c1Cl (racemic) has pIC50 at or above 7?
FALSE

Dear colleague, could you confirm whether CC(Oc1ccc2ncccc2c1)c1c(Cl)ccc(F)c1Cl (racemic) has pIC50 at or above 7?
FALSE

Dear colleague, could you confirm whether C[C@H](Oc1ccc2ncccc2c1)c1c(Cl)ccc(F)c1Cl has pIC50 at or above 7?
FALSE

Dear colleague, could you confirm whether C[C@@H](Oc1ccc2ncc(C3CC3C(N)=O)cc2c1)c1c(Cl)ccc(F)c1Cl (stereo partly drawn) has pIC50 at or above 7?
TRUE

Dear colleague, could you confirm whether CC(Oc1ccc2ncc(/C=C/C(=O)N(C)C)cc2c1)c1c(Cl)ccc(F)c1Cl (racemic) has pIC50 at or above 7?
TRUE

---

biological target: Mast/stem cell growth factor receptor Kit (Homo sapiens, UniProt P10721); assay: Inhibition of recombinant Kit by TR-FRET assay
Sequence (P10721 whole entry): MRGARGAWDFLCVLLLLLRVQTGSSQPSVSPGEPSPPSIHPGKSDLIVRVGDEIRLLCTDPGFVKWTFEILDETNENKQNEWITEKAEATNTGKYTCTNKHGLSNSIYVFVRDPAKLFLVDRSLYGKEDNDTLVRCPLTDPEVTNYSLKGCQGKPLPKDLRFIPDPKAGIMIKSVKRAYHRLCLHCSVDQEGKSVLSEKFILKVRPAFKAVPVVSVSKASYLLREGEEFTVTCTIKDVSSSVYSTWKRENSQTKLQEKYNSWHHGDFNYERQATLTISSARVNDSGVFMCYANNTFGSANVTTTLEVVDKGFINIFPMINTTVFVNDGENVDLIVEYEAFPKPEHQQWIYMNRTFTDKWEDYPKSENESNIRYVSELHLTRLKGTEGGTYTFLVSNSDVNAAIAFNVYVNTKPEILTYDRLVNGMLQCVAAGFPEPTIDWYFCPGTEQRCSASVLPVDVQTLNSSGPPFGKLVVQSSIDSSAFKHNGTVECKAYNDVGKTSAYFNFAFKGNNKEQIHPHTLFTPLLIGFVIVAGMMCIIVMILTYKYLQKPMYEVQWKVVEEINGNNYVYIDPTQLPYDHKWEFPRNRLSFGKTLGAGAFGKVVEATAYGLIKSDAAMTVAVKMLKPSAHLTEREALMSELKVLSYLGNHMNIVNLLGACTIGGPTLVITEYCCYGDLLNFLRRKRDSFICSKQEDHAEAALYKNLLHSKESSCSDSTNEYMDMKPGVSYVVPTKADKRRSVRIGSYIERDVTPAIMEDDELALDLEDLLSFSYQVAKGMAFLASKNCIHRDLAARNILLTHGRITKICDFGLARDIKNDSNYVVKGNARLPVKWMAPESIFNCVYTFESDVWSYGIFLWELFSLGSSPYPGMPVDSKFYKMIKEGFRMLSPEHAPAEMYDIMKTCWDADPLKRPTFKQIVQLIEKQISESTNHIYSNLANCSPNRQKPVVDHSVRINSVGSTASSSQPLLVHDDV
testReadout: IC50

Worked examples, 2 compounds total:
[
  {
    "compound": "C[C@@H](Oc1ccc2ncc(C3CC3C(N)=O)cc2c1)c1c(Cl)ccc(F)c1Cl (stereo partly drawn)",
    "assayedTarget": "Mast/stem cell growth factor receptor Kit (Homo sapiens, UniProt P10721)",
    "testReadout": "IC50",
    "recordedMeasurement": "41 µM"
  },
  {
    "compound": "C[C@@H](Oc1ccc2ncccc2c1)c1c(Cl)ccc(F)c1Cl",
    "assayedTarget": "Mast/stem cell growth factor receptor Kit (Homo sapiens, UniProt P10721)",
    "testReadout": "IC50",
    "recordedMeasurement": "41 µM"
  }
]

Now turn to the next compound.
Form field: IC50 recorded for C[C@@H](Oc1ccc2ncc(/C=C/C(N)=O)cc2c1)c1c(Cl)ccc(F)c1Cl with Mast/stem cell growth factor receptor Kit (Homo sapiens, UniProt P10721) (enter value)
> 50 µM

---

tested on: MDA-MB-231; assay: Cytotoxicity against human MDA-MB-231 cells after 96 hrs by WST8 assay; conditions: MDA-MB-231, 96 h
testReadout: IC50

Form field: IC50 recorded for C[C@@H](Oc1ccc2ncc(C3CC3C(N)=O)cc2c1)c1c(Cl)ccc(F)c1Cl (stereo partly specified) with MDA-MB-231 (enter value)
> 1000 nM

---

biological target: Vascular endothelial growth factor receptor 2 (Homo sapiens); assay: Inhibition of recombinant KDR by TR-FRET assay
Sequence (P35968 whole entry): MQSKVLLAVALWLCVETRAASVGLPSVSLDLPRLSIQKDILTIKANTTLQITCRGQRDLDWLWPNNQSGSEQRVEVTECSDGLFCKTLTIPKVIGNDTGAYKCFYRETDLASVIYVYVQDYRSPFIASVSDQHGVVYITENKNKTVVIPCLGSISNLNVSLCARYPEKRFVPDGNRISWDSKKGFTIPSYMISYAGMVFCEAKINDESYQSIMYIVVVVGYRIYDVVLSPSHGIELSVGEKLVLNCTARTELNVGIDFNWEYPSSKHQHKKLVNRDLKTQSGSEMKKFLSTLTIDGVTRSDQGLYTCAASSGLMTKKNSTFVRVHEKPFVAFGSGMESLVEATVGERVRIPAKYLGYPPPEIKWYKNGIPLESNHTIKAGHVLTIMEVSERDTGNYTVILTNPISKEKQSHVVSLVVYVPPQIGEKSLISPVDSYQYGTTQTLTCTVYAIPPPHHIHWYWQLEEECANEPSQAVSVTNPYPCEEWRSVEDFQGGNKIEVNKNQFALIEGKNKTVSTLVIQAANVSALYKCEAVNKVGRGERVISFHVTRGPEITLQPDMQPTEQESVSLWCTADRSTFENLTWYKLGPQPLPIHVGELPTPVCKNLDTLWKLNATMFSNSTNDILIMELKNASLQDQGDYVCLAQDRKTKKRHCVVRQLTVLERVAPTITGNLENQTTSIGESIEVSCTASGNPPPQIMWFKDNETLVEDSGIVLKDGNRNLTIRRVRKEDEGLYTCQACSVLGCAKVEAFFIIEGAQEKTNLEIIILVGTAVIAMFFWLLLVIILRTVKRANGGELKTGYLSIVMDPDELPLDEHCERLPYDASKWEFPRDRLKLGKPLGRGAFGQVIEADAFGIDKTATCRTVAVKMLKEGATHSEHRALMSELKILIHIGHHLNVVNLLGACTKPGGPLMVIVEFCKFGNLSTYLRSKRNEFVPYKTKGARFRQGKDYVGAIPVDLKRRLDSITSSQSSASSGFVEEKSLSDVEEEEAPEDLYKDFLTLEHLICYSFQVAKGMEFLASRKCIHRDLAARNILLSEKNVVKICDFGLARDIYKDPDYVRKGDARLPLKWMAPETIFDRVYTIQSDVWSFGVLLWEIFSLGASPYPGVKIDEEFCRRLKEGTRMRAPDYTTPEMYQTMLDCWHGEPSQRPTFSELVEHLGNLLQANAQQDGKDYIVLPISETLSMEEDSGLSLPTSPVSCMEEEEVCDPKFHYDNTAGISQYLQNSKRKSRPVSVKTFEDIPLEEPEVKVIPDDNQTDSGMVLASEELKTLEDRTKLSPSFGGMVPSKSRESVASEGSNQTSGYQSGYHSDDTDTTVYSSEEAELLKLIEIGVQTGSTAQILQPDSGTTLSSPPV
So basically, if IC50 comes in under 30 µM it's Condition met, and if it's 30 µM or more it's Condition not met.

Answer whether the compound CC(Oc1ccc2ncccc2c1)c1c(Cl)ccc(F)c1Cl (racemic) has IC50 strictly less than 30 µM
Condition not met

---

molecular target: Tyrosine-protein kinase Yes (Homo sapiens, UniProt P07947); assay: Inhibition of recombinant YES by TR-FRET assay
pIC50: −log10 of the molar value.
testReadout: pIC50

Worked examples, 2 molecules total:
[
  {
    "molecule": "C[C@@H](Oc1ccc2ncc(C3CC3C(N)=O)cc2c1)c1c(Cl)ccc(F)c1Cl (stereo partly drawn)",
    "testReadout": "pIC50",
    "recordedMeasurement": "< 4.30"
  },
  {
    "molecule": "C[C@@H](Oc1ccc2ncccc2c1)c1c(Cl)ccc(F)c1Cl",
    "testReadout": "pIC50",
    "recordedMeasurement": "< 4.30"
  }
]

Please give the measured pIC50 for this molecule: C[C@@H](Oc1ccc2ncc(/C=C/C(N)=O)cc2c1)c1c(Cl)ccc(F)c1Cl
4.59
